- METHOD NOTES: recombinant barcode read abundance after kanamycin selection (control-corrected) (log10(CPM+1)); higher = more efficient recombination; sequences stand for … in AGTGCAGAGAAAATCGGCCAGTTTTCTCTGCCTGCAGTCCGCATGCCGT…AGATTTATGCAGCGGACTGCCTTTCTCCCAAAGTGATAAACCGGACAGTATCATGGACCGGTTTTCCCGGTAATCCGTATTTGCAAGGTTGGTTTCACT; site = the 11-nt target;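 note: IS621 recombinase and bridge RNA in Escherichia coli cells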
Classification field: enter y for recombinant barcode read abundance (log10) values not below 0.1, n for values below it.

[in] Evaluate GACAATGCTTGGGTTCTAACCTGTTGCAT (site ACGTGGACTTA) : recombinant barcode read abundance (log10) at minimum 0.1?
[out] y

[in] State whether the measured recombinant barcode read abundance (log10) reaches 0.1, counting equality as reaching it, for AGTATACCTTGGGTTCTAACCTGTTGCTG (site AGTAGACCTAA)
[out] y

[in] For this sequence, is measured recombinant barcode read abundance (log10) 0.1 or higher? GTCCGTCCTTGGGTTCTAACCTGTTGCTT (site GTCCGTCCTAT)
[out] y

[in] # check: recombinant barcode read abundance (log10) of ACCTTGCCTTGGGTTCTAACCTGTTGCTA (site TGGAGAGCTCT) is greater than or equal to 0.1
[out] n

[in] // inclusive: recombinant barcode read abundance (log10) at least 0.1? input: GCGGCTTCTTGGGTTCTAACCTGTTGCCT (site GTGGCTTCTAG)
[out] y

[in] In plain terms: is recorded recombinant barcode read abundance (log10) at least 0.1 for CGGACTGCTTGGGTTCTAACCTGTTGCCT (site ACCTGACCTCC) ?
[out] n

[in] Quick check: does TTCTGGGCTTGGGTTCTAACCTGTTGCCT (site TTCTGCGCTAG) have recombinant barcode read abundance (log10) greater than or equal to 0.1?
[out] n

[in] Item TCCGTGACTTGGGTTCTAACCTGTTGCCT (site TCCGTGACTAG) with recombinant barcode read abundance (log10) of 0.1 or above?
[out] y

[in] Please indicate if the recorded recombinant barcode read abundance (log10) for GTTAACTCTTGGGTTCTAACCTGTTGCCT (site GTTAACTCTAG) meets or exceeds 0.1.
[out] y

[in] Has CGACGTACTTGGGTTCTAACCTGTTGCCT (site CGGCGTACTAG) a recorded recombinant barcode read abundance (log10) greater than or equal to 0.1?
[out] n

// data source = the supplement of paper PMC11208160
